Quick list: PBM binding z-score per entry.
System: PPARg:RXRa (NR concentration 180 nM, RXRa partner concentration 90 nM)
assayOverview: PBM binding z-score (relative to random genomic background probes); higher = stronger binding; sequences stand for … in GC…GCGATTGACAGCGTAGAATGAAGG
Give a plain numeric answer without units written out.

CCTAGCAGGCCATTCTGGGTCACTCAAGGCTTGA
0.687
CCGACTGGGGCAAGGTTACCGTAACGCACAGCCA
2.6
TCTTGTAGATCAAAGGGTAAGAAAGCCGAAGCCT
4.4
GATACAGGGTAAGCTAGAGGCCAGAGTATGGAAA
0.319
GGAACGAGGGCATTCGAGTTGATCGCATGGCGAT
0.585
CGTCAAAGTTCAAGGTAACGTTACAGAAAGCAGC
4.55
ATATGTAGGTTACATCCGGTTCATTCAGGCTATG
5.17
CCTACTGGGCCAAAGGTCATTGTTTCCAATGCTC
11.7

Item `ATCTCTAGGTAAGACTCAGTTCCGTGAAGAACGC` has what recorded PBM binding z-score?
-0.0539

Item `CCACCAAGGTGAACAAGGTCGTTGATTACTATTC` has what recorded PBM binding z-score?
1.21

====

Test system: RARb:RXRa (NR concentration 270 nM, RXRa partner concentration 90 nM)
assayOverview: PBM binding z-score (relative to random genomic background probes); higher = stronger binding; sequences stand for … in GC…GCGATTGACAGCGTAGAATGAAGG
propertyMeasured: PBM binding z-score
Give a plain numeric answer without units written out.

TCTCGGAGGACACGAAAGGTCCGAGCTCGACATC
1.47

Item `ATCGAAAGGTCGTGAGGTGCGTATACAGAAAGGC` has what recorded PBM binding z-score?
3.85

Item `TCTCGGAGGACACGAAGGTCAGACCTTTCCAGAG` has what recorded PBM binding z-score?
3.59

Item `TCTAGCAGGCCAGAGGGTTACTCAAGAGGTACGG` has what recorded PBM binding z-score?
0.213

Item `ACTAGTTGGACAGCTGAGGTCACACACAATTCGG` has what recorded PBM binding z-score?
3.33

Item `CGAACTAGGTTAAGGACAGTGAATCTCCGCACGC` has what recorded PBM binding z-score?
1.47

Item `CCTAGTTGGTCAGGGTCACACACGCTATAGGTAC` has what recorded PBM binding z-score?
3.43

Item `CCGACTGGGGCAAAGGTTAGCATACTCAGTACGA` has what recorded PBM binding z-score?
1.99

Item `GCGACTGGGGCAGCAGCAGGTTACCATAACTTAA` has what recorded PBM binding z-score?
0.608

Item `ATATATAGGTTATCGGGTCATTCAGTTTGCGCAT` has what recorded PBM binding z-score?
2.96

====

Tested on: VDR homodimer (NR concentration 270 nM)
assayOverview: PBM binding z-score (relative to random genomic background probes); higher = stronger binding; sequences stand for … in GC…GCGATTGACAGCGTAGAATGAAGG
propertyMeasured: PBM binding z-score
Give a plain numeric answer without units written out.

Item `CGTCAAAGTTCCACTAAGGTAACGTAAAGCACGC` has what recorded PBM binding z-score?
0.238

Item `AGAATGAGTTTACCAAAGATCAGGGAAACGCTTG` has what recorded PBM binding z-score?
1.78

Item `AATACAGGGTTACTAGGCCAGAGTAGGTACGAAT` has what recorded PBM binding z-score?
0.675

Item `CCCTACGGGTCAAGGTTATAGCACGGGTGGTACG` has what recorded PBM binding z-score?
1.07

Item `TCTTGTAGATCAAAGGTTAAGATAGCCGAAGCCT` has what recorded PBM binding z-score?
0.153

Item `ACTATTAATTGAGACGAGGGCAACCGATAGGTTG` has what recorded PBM binding z-score?
1.64

Item `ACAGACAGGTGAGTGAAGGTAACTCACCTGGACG` has what recorded PBM binding z-score?
-0.74

====

Quick list: PBM binding z-score per entry.
System: PPARg:RXRa DBDmut IVT, anti-RXR (DBD mutation: RXRa K156A/R161A, NR concentration 270 nM, RXRa partner concentration 90 nM)
assayOverview: PBM binding z-score (relative to random genomic background probes); higher = stronger binding; sequences stand for … in GC…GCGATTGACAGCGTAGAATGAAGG
Give a plain numeric answer without units written out.

CCGAGTAGGTCATGGGGCATTCAGGCAACGGTGA
5.78
ATCGAAAGGTCGACGAGGTGCGTATACACCGTTT
0.356
TCATATAGGTAAACAGTTGAAAGTCCGTAAGTTA
4.45
CCAGACAGGTGAATGGTAACTCAGTCTGGTACGC
0.897
CCAGACAGGTGGGAAGGTAACTCAGCCTCGATTA
-0.289
GCGACTGGGGCAAAGCAGGTTACCATAAGGTTGG
4.62
AGAATGAGGTTACCAAAAATCAGGGAAACGCTTG
4.5
AGCCAAAGTTCAGGACGAGGTAACGTAAAGCACG
-0.0528

Item `CAAACTAGGTCGAAGGTCAAAGTCGAGCCAACCA` has what recorded PBM binding z-score?
6.36

Item `CCTACTGGGCCATTCAGAGGCCATTGATCATATG` has what recorded PBM binding z-score?
4.1

Item `GCGACTGGGGCAAAGCAGGTTACCATCAGGTTGG` has what recorded PBM binding z-score?
3.88

Item `TCTGCTAGGTCAGTTGGTCAGCTATCGAGCTGCC` has what recorded PBM binding z-score?
2.46

Item `GGAACCAGGGCAAAGTTGATAGCATCTGTCGACG` has what recorded PBM binding z-score?
4.31

Item `CCAGAAAGGTGAGAAGGTAACTCAGCCTCGATTA` has what recorded PBM binding z-score?
2.89

Item `TCAGCTAGGTCAACGATGGTCAGCTAATCTGCTA` has what recorded PBM binding z-score?
4.15

Item `ACTTACGGGTCAACGAGGTTATTGCACGCGTATA` has what recorded PBM binding z-score?
3.11

====

Tested on: RXRa DBDmut IVT, anti-RXR (DBD mutation: RXRa K156A/R161A, NR concentration 90 nM)
assayOverview: PBM binding z-score (relative to random genomic background probes); higher = stronger binding; sequences stand for … in GC…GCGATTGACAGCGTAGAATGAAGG
Quick list: PBM binding z-score per entry.

Consider the worked cases shown below.
GCTATTAGTTGAAAGGGGAACCGAATGATTCTCG
0.78
ACCGACAGGTGATGAAGGTAACTCAGGCTATCAT
-0.271
CCTACTGGGCTATCAGGTCATTGATATCAACGTT
0.092

Item `TATACAGGGTCAAAGGCCAGAATACGAATGTCGA` has what recorded PBM binding z-score?
2.7

====

System: THRa:RXRa (NR concentration 90 nM, RXRa partner concentration 90 nM)
assayOverview: PBM binding z-score (relative to random genomic background probes); higher = stronger binding; sequences stand for … in GC…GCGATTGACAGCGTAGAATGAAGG
propertyMeasured: PBM binding z-score
Give a plain numeric answer without units written out.

Item `CAAACTAGGTCACGAATGGTCAAAGTCGAATGAC` has what recorded PBM binding z-score?
3.74

Item `CTCGAAAGGTCGTGCTCAGTTGAGTATACCAAAC` has what recorded PBM binding z-score?
2.66

Item `CCTTACGGGTCACTCCAGTTTATAGCATCGGAGT` has what recorded PBM binding z-score?
4.11

Item `GCTATTAGTTGAAAGGGCTACCGAATGATTCTCG` has what recorded PBM binding z-score?
-0.589

====

System: RARg homodimer (NR concentration 270 nM)
assayOverview: PBM binding z-score (relative to random genomic background probes); higher = stronger binding; sequences stand for … in GC…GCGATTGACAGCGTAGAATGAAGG
Decision: PBM binding z-score >= 0.9 yields t, all other cases yield f.

// known answers, use as guide
ATCTCTTGGTAAAAGTTCAGTGAATCCCGAGGAT
t
TCTCGGTGGACACGAAGGTCAGAGCTTTCCAGAG
t
TCATATAGGTGAACAGGTGAAAGTCCGTAAGTTA
t
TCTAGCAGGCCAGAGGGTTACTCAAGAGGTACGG
f
CGTCAAAGTTCAAGGTAACGTAGCAGAAAGCAGC
t

Evaluate `ATGTCTAGGTAACAAGTTCAGTGAAAGAGAGGAC` : PBM binding z-score at minimum 0.9?
t

Evaluate `TCATATAGGTAAAATGTGAAAGTCGGTGTGGTAA` : PBM binding z-score at minimum 0.9?
f

Evaluate `TCAATTAGTTGATTAGGGCAACCGAAACAGCGGA` : PBM binding z-score at minimum 0.9?
f

Evaluate `TCACCAAGGTGAAAGGTCGTTGATGCACGCCTTG` : PBM binding z-score at minimum 0.9?
t

Evaluate `TGAATGGGGTTAAAGATCAGGGAACGTGGCGTCG` : PBM binding z-score at minimum 0.9?
t

Evaluate `CCTAATGGGCCATTCAGAGGTCATTGATCATATG` : PBM binding z-score at minimum 0.9?
t

Evaluate `GCTCGGAGGACAAGGTCAGAGCCTTGTCCGTAGA` : PBM binding z-score at minimum 0.9?
t

Evaluate `ATATGTAGGTTAAGGGTCATTCAGGTTGGTTCGC` : PBM binding z-score at minimum 0.9?
t

Evaluate `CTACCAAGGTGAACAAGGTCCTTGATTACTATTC` : PBM binding z-score at minimum 0.9?
t

Evaluate `CAAACTAGTTCAAGGTCAAAGTCGGTTTGTGCCA` : PBM binding z-score at minimum 0.9?
t

Evaluate `CAGACTGGGGCATAAGGTTACCATAAGCCAGCCC` : PBM binding z-score at minimum 0.9?
t

Evaluate `CCTACTGGGCCACGAATGGTCATTGATTCAGTGA` : PBM binding z-score at minimum 0.9?
f

Evaluate `CCAGACAGGTGAGAAGGTAACACAGCCTCGATTA` : PBM binding z-score at minimum 0.9?
f

Evaluate `ACTAGTTGGGCAGCTGAGGTCACACACAATTCGG` : PBM binding z-score at minimum 0.9?
t

Evaluate `TCTTGTAGATCAAAAGAGGTTAAGAAAGTGCGCT` : PBM binding z-score at minimum 0.9?
f

Evaluate `GCGACTGGGGCAAAGTAGGTTACCATAAGGTTGG` : PBM binding z-score at minimum 0.9?
f

Evaluate `ACAGACAGGTGAGTGAAGGTGACTCAGCTGGACG` : PBM binding z-score at minimum 0.9?
f

Evaluate `CCAGACAGGTGAAAGGTAAGTCAGTCTGGTACGC` : PBM binding z-score at minimum 0.9?
f

Evaluate `ATTCGGAGGACAAAGGTCAGAGCTACGCCAGTGA` : PBM binding z-score at minimum 0.9?
t

Evaluate `ACAGACAGGTGATGAAGTTAACTCAGGCTATCAT` : PBM binding z-score at minimum 0.9?
f

Evaluate `CCGACTGGGGCAGAAAGCTTACCATACCATCCGG` : PBM binding z-score at minimum 0.9?
f

Evaluate `CCAGACAGGTGAAAGGTAACTCGGTCTGGTACGC` : PBM binding z-score at minimum 0.9?
f

Evaluate `AGTCTAAGTTCAGGACGAGGTAACGTAAAGCACG` : PBM binding z-score at minimum 0.9?
t

Evaluate `CATACAGGGTCAGCTAGGCGAGAGTAGGGACGGC` : PBM binding z-score at minimum 0.9?
t
